Value source: PubChem BioAssay (NCI)

Items are presented alongside their recorded GI50.
Test system: SW-620 colon
PROTOCOL: NCI tumour cell line growth inhibition, 48 h

Answered cases to consult:
[[record]]
compound = "Oc1cccc(Cn2c(-c3cccc(O)c3O)nc3ccccc32)c1O"
assayed_target = "SW-620 colon"
measured_property = "GI50"
result = "6.82 µM"

[[record]]
compound = "O=C(NC1CCN(Cc2ccccc2)CC1)c1cc(C(=O)NC2CCN(Cc3ccccc3)CC2)cc(C(=O)NC2CCN(Cc3ccccc3)CC2)c1"
assayed_target = "SW-620 colon"
measured_property = "GI50"
result = "3.86 µM"

[[record]]
compound = "O=C1CCC2=C3C4CCCCC4C(=O)C4CCCC(OC2C1)C34 (centres undefined)"
assayed_target = "SW-620 colon"
measured_property = "GI50"
result = "0.394 µM"

[[record]]
compound = "Cc1ccc2c(N/N=C\\c3ccco3)cc(C)nc2n1"
assayed_target = "SW-620 colon"
measured_property = "GI50"
result = "3.01 µM"

[[record]]
compound = "N/C(=N\\c1nc2ccccc2s1)NC(=O)Nc1ccccc1Cl"
assayed_target = "SW-620 colon"
measured_property = "GI50"
result = "0.0883 µM"


Enquiry: Return reported GI50. Input compound: COc1ccccc1N1CCN(C(=O)c2ccc(NS(=O)(=O)c3cccc4cccnc34)cc2)CC1
Return: > 100 µM

Enquiry: Return value of GI50 for input CCn1cc(C(=O)N/N=C/c2cccc(F)c2)c(=O)c2cc(F)c(N3CCNC(C)C3)c(F)c21 (centres undefined) , no commentary.
Return: 1.68 µM

Enquiry: Give GI50 for COc1cc(C)[nH]c(=O)c1CN1CCc2c(Cl)cc([C@H](OC)C3COC3)c(Cl)c2C1=O
Return: > 100 µM

Enquiry: Report GI50 for O=C1/C=C/[C@@H](O)[C@@H]2C[C@@H](O)C[C@H]2/C=C/CCC[C@H](CO)O1
Return: 2.32 µM
